# Test system: P. falciparum 3D7 growth, pLDH absorbance
# method: blood-stage malaria parasite growth potency – strain 3D7, dose response (AID 2305)
measured endpoint: pIC50
Numbers only, as −log10 of the molar value.

Cc1ccc(N/C(N)=N/c2ncccc2OCc2c(F)cccc2Cl)cc1
5.92

I have 4 molecules here; please give me pIC50 for each one.
1. COc1cc(C2CCN(CCCCNC(=O)c3ccc(NC(=O)c4cc(C(F)(F)F)cc(C(F)(F)F)c4)cc3)CC2)ccc1OC(C)C
2. OC1(c2ccccc2)c2cc(Cl)ccc2OC1c1nc2c(Cl)ccc(Cl)c2o1 (stereo not given)
3. CCc1cc2c(O)c([N+](=O)[O-])c(=O)oc2cc1OCCCCCOc1cc2oc(=O)c([N+](=O)[O-])c(O)c2cc1CC
4. Cc1cccc2[nH]c(-c3ccc(-c4ccc(NC(=O)Nc5cccc(C#N)c5)cc4)s3)nc12

-- reply
1. 6.82
2. 6.52
3. 6.59
4. 6.92

###

Exercise: state measured pIC50 for each of the compounds provided.
# Tested on: P. falciparum 3D7 growth, pLDH absorbance
# method: blood-stage malaria parasite growth potency – strain 3D7, dose response (AID 2305)
Answers are plain numbers, as −log10 of the molar value.

Some compounds with known pIC50 results, for comparison:
COC(=O)CCCOc1cc(Cc2cnc(N)nc2N)cc(OC)c1OC
6.11
OC1CCCN(Cc2cccc(-c3ccc(-c4nc5ccc(C(F)(F)F)cc5[nH]4)cc3)c2)C1 (stereo not given)
6.16
Fc1ccc2nc(-c3ccc(-c4ccc(CNCCN5CCNCC5)cc4)cc3)[nH]c2c1
6.07
O=C(NCc1cccc2ccccc12)C1CCCN(C(=O)c2ccc(O)c(-c3ccc(Cl)c(Cl)c3)c2)C1 (stereo not given)
5.99

-- ask Give the measured pIC50 of `Cc1nc(N)nc(N)c1-c1cccc(Cl)c1` .
-- reply 5.93

###

# Tested on: P. falciparum 3D7 growth, pLDH absorbance
# method: blood-stage malaria parasite growth potency – strain 3D7, dose response (AID 2305)
measured endpoint: pIC50
Numbers only, as −log10 of the molar value.

Some compounds with known pIC50 results, for comparison:
CC1(C)CCCN(C(=O)c2cccc(-n3nc(-c4ccc(Cl)cc4)cc3N)c2)C1
6.15
O=c1c2ccccc2[nH]c2cc(Cl)ccc12
6.06
CCCCNc1c(CC)c(C)c(C#N)c2nc3ccccc3n12
6.42
COCCNC(=O)c1ccc(OC2CCN(Cc3ccc(F)c(F)c3)CC2)c(Cl)c1
5.83
COc1ccc(C=NNc2cc(C)nc3ccc(C)cc23)c2ccccc12
6.07

I have 3 compounds here; please give me pIC50 for each one.
1. CCN1CCN(c2cc(C)c3cc(NC(=O)c4cccc(C(F)(F)F)c4)ccc3n2)CC1
2. FC(F)(F)c1ccc2nc(-c3cccc(-c4ccc(CNCC5CCCO5)cc4)c3)[nH]c2c1 (stereo not drawn)
3. Cc1cc(C(=O)NC2CCN(Cc3ccccc3)CC2)ccc1-c1nc2cc(Cl)c(Cl)cc2[nH]1

-- reply
1. 6.24
2. 6.55
3. 6.02

###

Exercise: state measured IC50 for each of the compounds provided.
# Test system: P. falciparum 3D7 growth, pLDH absorbance
# method: blood-stage malaria parasite growth potency – strain 3D7, dose response (AID 2305)
One number for each entry, in µM.

Some compounds with known IC50 results, for comparison:
CCCN1CCN(CC(O)CNC(=O)Nc2ccc(Br)cc2)CC1 (stereo unspecified)
0.06
CC1CCN(CC[C@H]2CCCN2S(=O)(=O)c2cccc(NC(=O)c3cc4ccccc4s3)c2)CC1
0.83
CCCCSc1ccc2nc(-c3c[nH]c4ccc(C#N)cc34)cn2c1
0.95
CC[C@H]1CN2CC[C@H]1C[C@H]2[C@H](O)c1cc(-c2ccccc2F)nc2ccc(OC)cc12
0.08
CCN(C(=O)CSc1cc(C)c2cc(C)cc(C)c2n1)C1CCS(=O)(=O)C1 (stereo unspecified)
0.67
O=C(/C=C/c1ccc(Cl)c(Cl)c1)N1CCN(C(=O)Nc2cccc(C(F)(F)F)c2)CC1
0.7
O=[N+]([O-])c1ccc(C=NO)nc1
0.87
COC(=O)c1cc(OC2CCOC2=O)cc2c1OC(C)(C)O2 (stereo unspecified)
0.81
O=C(Nc1ccc2c(c1)CCC2)N[C@H]1CCN(CCCCCNC(=O)[C@@H]2C[C@H]2c2ccc(Cl)c(Cl)c2)C1
1.08
CC(C)CC(=O)N1CCNC[C@@H]1C(=O)NCCSCc1c(F)cccc1Cl
1.2

I have 6 compounds here; please give me IC50 for each one.
1. CCOc1ccc2c(NN=Cc3ccc(F)cc3)cc(C)nc2c1
2. NC1CCN(Cc2cccc(-c3csc(-c4nc5ccccc5[nH]4)c3)c2)C1 (stereo unspecified)
3. CCOc1cc(C(=O)Nc2ccc(-c3nc4ccccc4[nH]3)cc2)cc(OCC)c1OCC
4. Cc1cc(NC(=O)Nc2cccc(N(C)C)c2)c2ccccc2n1
5. CC(C)(CNC(=O)C1CCN(CCOc2ccc(Cl)cc2)CC1)c1nc(-c2ccc(Cl)c(O)c2)c(-c2ccncc2)[nH]1
6. N#Cc1ccc(N(CCOc2ccc(Cl)cc2)Cc2ccccc2C(F)(F)F)cc1C(F)(F)F

-- reply
1. 0.58
2. 0.89
3. 0.23
4. 0.2
5. 0.71
6. 0.66
